Reported NF-kB SEAP reporter activity is given for each of the following compounds.
Tested on: RAW-Dual
Procedure summary: NF-kB SEAP reporter activity, fold change vs agonist alone; cytotoxicity flag (confluency mask): not cytotoxic; higher = enhanced NF-kB activity
Condition details: agonist: Pam3CSK4 (TLR2/1) 0.1 ug/mL
Whole data set: some 2,900 compounds, median “NF-kB SEAP reporter activity, fold change vs agonist alone” near 0.99, cut for the highest 2% near 2.6. The sample as a whole holds a higher share of the highest values than the screen did.

Here is how some compounds turned out for NF-kB SEAP reporter activity.
Compound	NF-kB SEAP reporter activity
Cn1cc(-c2cc(Oc3cc(F)c(NC(=O)C4(C(=O)Nc5ccccc5)CC4)cc3F)ccn2)cn1 (library stock concentration (final ~1000-fold dilution): 10 mM)	0.98
COc1ncc(-c2ccc3nccc(-c4ccnnc4)c3c2)cc1NS(=O)(=O)c1ccc(F)cc1F (library stock concentration (final ~1000-fold dilution): 10 mM)	0.801
Cl.Cn1cc(C(=O)Nc2ccc3c(c2)OCCO3)c2ccccc2c1=O (library stock concentration (final ~1000-fold dilution): 10 mM)	1.29

Consider now this further compound.
(Q) Which NF-kB SEAP reporter activity value belongs to COc1cc2nccc(Oc3ccc(NC(=O)C4(C(=O)Nc5ccc(F)cc5)CC4)cc3)c2cc1OC.O=C(O)CC(O)C(=O)O (library stock concentration (final ~1000-fold dilution): 10 mM) ?
(A) 0.277
